Test: qHTS assay for identifying genotoxic compounds that show differential cytotoxicity against isogenic chicken DT40 cell lines with known DNA damage response pathways - Rev3 mutant cell line (AID 743014); note: nearly all actives have a fitted effect of over 55% in size
Details: chicken DT40 Rev3-/- viability, CellTiter-Glo, 40 h; series mostly up to 68.4 µM
Records with an inconclusive call do not appear. The source made the active and inactive calls. Calls come from the whole dose curve; as a rule, active = well fitted cell-killing curve with a large enough effect in the repeat runs; inconclusive = weak or mixed curves, or effect the other way; inactive = no such curve, though single readings can be large or run the other way.
Your answer must be one of the following: label 1 for active, label 0 for inactive

What classification did `O=C1c2ccccc2C(=O)C1c1ccc(Cl)cc1` end up with in this test?
label 0

What classification did NC(=O)OCC(O)COc1ccc(Cl)cc1 (stereo not given) end up with in this test?
label 0

What classification did `Cc1cc(-n2c(=O)[nH]c(=O)n(C)c2=O)ccc1Oc1ccc(S(=O)(=O)C(F)(F)F)cc1` end up with in this test?
label 1

What classification did `CNc1cc(OC)c(C(=O)N[C@H]2CCN(Cc3ccccc3)[C@H]2C)cc1Cl` end up with in this test?
label 1

What classification did `COc1ccc(C[C@H](N)C(=O)N[C@H]2[C@@H](O)[C@H](n3cnc4c(N(C)C)ncnc43)O[C@@H]2CO)cc1` end up with in this test?
label 1

###

Assay: qHTS assay to identify small molecule antagonists of the thyroid receptor (TR) signaling pathway - cell viability counter screen (AID 743064); note: nearly all actives have a fitted effect of over 50% in size
Conditions: GH3.TRE-Luc viability, CellTiter-Fluor, 24 h; series mostly up to 70.3 µM
Results filed as inconclusive are left out. Activity calls are given as the source filed them. Calls follow the shape of the dose curve; as a rule, active = well fitted cell-killing curve with a large enough effect in the repeat runs; inconclusive = weak or mixed curves, or effect the other way; inactive = no such curve, though single readings can be large or run the other way. Non-standard residues stand in square brackets, D forms with d. Residues, ends and D or L forms follow the SMILES beside them. pGlu = O=C1CC[C@@H](C(=O)O)N1; Thz = O=C(O)[C@@H]1CSCN1
Your answer must be one of the following: active, inactive

What classification did `CN1CCN(CCC=C2c3ccccc3Sc3ccc(S(=O)(=O)N(C)C)cc32)CC1` end up with in this test?
active

What classification did `C[C@H](N)C(=O)N[C@@H](C)P(=O)(O)O` end up with in this test?
inactive

What classification did NC(Cc1ccccc1)C(=O)O (stereo unspecified) end up with in this test?
inactive

What classification did CN1CCC(CN2c3ccccc3Sc3ccccc32)C1 (stereo unspecified) end up with in this test?
active

What classification did `C[C@]12CCC(=O)C=C1CC[C@@H]1[C@@H]2[C@@H](O)C[C@@]2(C)[C@H]1CC[C@]2(O)C(=O)COP(=O)(O)O` end up with in this test?
inactive

What classification did `CC1(C)S[C@@H]2[C@H](NC(=O)C3(N)CCCCC3)C(=O)N2[C@H]1C(=O)O` end up with in this test?
inactive

What classification did CC1(C)C2CC[C@]3(C)[C@H](C(=O)C=C4[C@@H]5C[C@@](C)(C(=O)O)CC[C@]5(C)CC[C@]43C)[C@@]2(C)CC[C@@H]1O[C@H]1O[C@H](C(=O)O)[C@@H](O)[C@H](O)[C@H]1O[C@@H]1O[C@H](C(=O)O)[C@@H](O)[C@H](O)[C@H]1O (stereo partly specified) end up with in this test?
inactive

What classification did `O=C1/C(=C\c2cccs2)CCC/C1=C\c1cccs1` end up with in this test?
inactive

What classification did `O=C(O)c1ccc(OCCn2ccnc2)cc1` end up with in this test?
inactive

What classification did `CC(C)(S)[C@@H](N)C(=O)O` end up with in this test?
inactive

What classification did `O=C(O)c1cc(N=Nc2ccc(O)c(C(=O)O)c2)ccc1O` end up with in this test?
inactive

What classification did `O=C(NNCS(=O)(=O)O)c1ccncc1` end up with in this test?
inactive

What classification did `COC(=O)[C@H]1[C@H]2C[C@@H]3c4[nH]c5cc(OC)ccc5c4CCN3C[C@H]2C[C@@H](OC(=O)/C=C/c2cc(OC)c(OC)c(OC)c2)[C@@H]1OC` end up with in this test?
inactive

What classification did `CC(C)(CO)[C@@H](O)C(=O)NCCC(=O)NCCSSCCNC(=O)CCNC(=O)[C@H](O)C(C)(C)CO` end up with in this test?
inactive

What classification did `CCCCCCCCCCCCCCCC(=O)OCCC1CCN(CCCN2c3ccccc3Sc3ccc(S(=O)(=O)N(C)C)cc32)CC1` end up with in this test?
inactive

What classification did `CCC(=O)OCC(=O)[C@@]1(OC(=O)CC)[C@H](C)C[C@H]2[C@H]3[C@H]([C@@H](O)C[C@@]21C)[C@@]1(C)C=CC(=O)C=C1C[C@H]3Cl` end up with in this test?
inactive

What classification did `CC[C@H](C)[C@@H]1NC(=O)[C@H](Cc2ccc(O)cc2)NC(=O)[C@@H](N)CSSC[C@@H](C(=O)N2CCC[C@H]2C(=O)N[C@@H](CC(C)C)C(=O)NCC(N)=O)NC(=O)[C@H](CC(N)=O)NC(=O)[C@H](CCC(N)=O)NC1=O` end up with in this test?
inactive

What classification did COc1ccc2c(c1)OC(C)(C)C(c1ccccc1)C2c1ccc(OCCN2CCCC2)cc1 (stereo unspecified) end up with in this test?
active

What classification did `O=C1NCCN1c1ncc([N+](=O)[O-])s1` end up with in this test?
inactive

What classification did `N#Cc1ccc2c(c1)N(CCCN1CCC(O)CC1)c1ccccc1S2` end up with in this test?
active

What classification did `O=[n+]1ccn([O-])c2ccccc21` end up with in this test?
inactive

What classification did `Cc1c(O)cc2c(c1C)O[C@](C)(CCC[C@H](C)CCC[C@H](C)CCCC(C)C)CC2` end up with in this test?
inactive

What classification did CC1(C)S[C@@H]2[C@H](NC(=O)C(C(=O)Oc3ccc4c(c3)CCC4)c3ccccc3)C(=O)N2[C@H]1C(=O)O (stereo partly specified) end up with in this test?
inactive

What classification did `CC1(C)[C@@H]2CC[C@@]1(C)[C@H](OC(=O)CSC#N)C2` end up with in this test?
inactive

What classification did `CCC(C)(C)OC(=O)N[C@@H](Cc1c[nH]c2ccccc12)C(=O)N[C@@H](CCSC)C(=O)N[C@@H](CC(=O)O)C(=O)N[C@@H](Cc1ccccc1)C(N)=O` end up with in this test?
inactive

What classification did `CC(C)C[C@H](NC(=O)[C@@H](Cc1c[nH]c2ccccc12)NC(=O)[C@H](Cc1ccc(O)cc1)NC(=O)[C@H](CO)NC(=O)[C@H](Cc1c[nH]c2ccccc12)NC(=O)[C@H](Cc1cnc[nH]1)NC(=O)[C@@H]1CCC(=O)N1)C(=O)N[C@@H](CCCN=C(N)N)C(=O)N1CCC[C@@H]1C(=O)NCC(N)=O` end up with in this test?
inactive

What classification did O=C1CC[C@@H](C(=O)N2CSC[C@H]2C(=O)O)N1 ([pGlu]-[Thz]-OH) end up with in this test?
inactive

What classification did `CCCCC(=O)OCC(=O)[C@]1(O)Cc2c(O)c3c(c(O)c2[C@@H](O[C@H]2C[C@H](NC(=O)C(F)(F)F)[C@H](O)[C@H](C)O2)C1)C(=O)c1c(OC)cccc1C3=O` end up with in this test?
active

What classification did `CN=C1C=CC(=C(c2ccc(N(C)C)cc2)c2ccc(N(C)C)cc2)C=C1` end up with in this test?
active

What classification did `CC(=O)N[C@@H](C=O)[C@@H](O)[C@H](O)[C@H](O)CO` end up with in this test?
inactive

What classification did `CCNC(=O)[C@@H]1CCCN1C(=O)[C@H](CCCN=C(N)N)NC(=O)[C@H](CC(C)C)NC(=O)[C@@H](Cc1c[nH]c2ccccc12)NC(=O)[C@H](Cc1ccc(O)cc1)NC(=O)[C@H](CO)NC(=O)[C@H](Cc1c[nH]c2ccccc12)NC(=O)[C@H](Cc1cnc[nH]1)NC(=O)[C@@H]1CCC(=O)N1` end up with in this test?
active
